Recorded EC50 for the following compounds
target: Sulfonylurea receptor 1, Kir6.2 (Homo sapiens, UniProt Q09428+Q14654); experiment: Activity at Kir6.2/SUR1 KATP channels expressed in HEK293 cells assessed as repolarization of tolbutamide-induced membrane depolarization
Sequence (Q14654 whole entry): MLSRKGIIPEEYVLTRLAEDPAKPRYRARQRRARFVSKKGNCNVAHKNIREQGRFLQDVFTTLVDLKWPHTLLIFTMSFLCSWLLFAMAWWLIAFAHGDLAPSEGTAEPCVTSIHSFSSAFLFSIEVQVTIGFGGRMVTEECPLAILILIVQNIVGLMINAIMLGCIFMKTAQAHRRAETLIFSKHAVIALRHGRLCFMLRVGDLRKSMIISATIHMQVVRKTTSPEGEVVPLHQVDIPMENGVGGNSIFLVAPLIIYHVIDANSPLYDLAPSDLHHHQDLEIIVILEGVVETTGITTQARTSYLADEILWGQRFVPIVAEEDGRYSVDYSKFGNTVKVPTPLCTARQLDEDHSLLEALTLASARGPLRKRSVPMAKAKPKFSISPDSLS
Sequence (Q09428 whole entry): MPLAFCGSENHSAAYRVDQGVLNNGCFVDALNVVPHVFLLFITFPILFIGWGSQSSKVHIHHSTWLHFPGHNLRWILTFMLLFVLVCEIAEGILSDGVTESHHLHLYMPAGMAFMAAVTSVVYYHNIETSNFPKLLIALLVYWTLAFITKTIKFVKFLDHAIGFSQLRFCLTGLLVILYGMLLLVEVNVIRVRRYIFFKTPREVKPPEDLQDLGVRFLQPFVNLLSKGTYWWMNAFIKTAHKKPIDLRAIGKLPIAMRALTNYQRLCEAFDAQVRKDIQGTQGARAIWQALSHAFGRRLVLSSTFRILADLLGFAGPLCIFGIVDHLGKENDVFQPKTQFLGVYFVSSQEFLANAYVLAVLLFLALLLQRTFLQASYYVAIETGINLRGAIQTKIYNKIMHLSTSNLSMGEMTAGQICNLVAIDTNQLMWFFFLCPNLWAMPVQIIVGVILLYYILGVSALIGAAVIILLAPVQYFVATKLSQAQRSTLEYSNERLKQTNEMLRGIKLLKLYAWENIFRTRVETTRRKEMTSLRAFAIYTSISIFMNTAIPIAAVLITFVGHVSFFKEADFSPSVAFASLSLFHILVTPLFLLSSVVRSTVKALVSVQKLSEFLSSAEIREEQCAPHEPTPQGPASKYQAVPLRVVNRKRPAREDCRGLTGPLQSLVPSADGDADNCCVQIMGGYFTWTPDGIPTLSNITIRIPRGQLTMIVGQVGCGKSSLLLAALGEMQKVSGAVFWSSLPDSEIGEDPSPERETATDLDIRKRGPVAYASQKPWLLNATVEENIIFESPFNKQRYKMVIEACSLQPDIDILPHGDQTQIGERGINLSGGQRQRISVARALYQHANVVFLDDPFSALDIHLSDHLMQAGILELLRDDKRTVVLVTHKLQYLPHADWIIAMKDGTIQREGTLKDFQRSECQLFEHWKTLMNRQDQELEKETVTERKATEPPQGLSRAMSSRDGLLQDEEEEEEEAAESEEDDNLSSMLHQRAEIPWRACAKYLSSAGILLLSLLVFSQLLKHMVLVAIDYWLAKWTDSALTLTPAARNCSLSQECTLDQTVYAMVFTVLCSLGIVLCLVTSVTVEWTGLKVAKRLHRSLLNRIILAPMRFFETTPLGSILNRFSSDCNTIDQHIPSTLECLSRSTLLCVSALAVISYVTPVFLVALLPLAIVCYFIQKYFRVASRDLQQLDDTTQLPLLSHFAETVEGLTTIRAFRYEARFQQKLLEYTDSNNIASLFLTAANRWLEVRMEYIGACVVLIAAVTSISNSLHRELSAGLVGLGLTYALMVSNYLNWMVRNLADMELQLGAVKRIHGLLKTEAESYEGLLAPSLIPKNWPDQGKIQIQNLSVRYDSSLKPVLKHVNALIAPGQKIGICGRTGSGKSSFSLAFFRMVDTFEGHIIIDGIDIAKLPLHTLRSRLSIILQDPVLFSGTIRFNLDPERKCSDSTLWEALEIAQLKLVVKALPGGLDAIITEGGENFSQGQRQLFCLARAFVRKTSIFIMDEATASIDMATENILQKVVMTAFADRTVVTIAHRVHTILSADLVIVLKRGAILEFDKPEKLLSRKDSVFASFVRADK

# structure.string, metric, result
data = [
    ("CC(=O)Nc1nc2ccccc2n1CCN1CCCC1", "EC50", "> 30 µM"),
    ("OCCn1c(-c2ccc(F)cc2)cs/c1=N\\c1ccc(F)cc1", "EC50", "21 µM"),
    ("O=c1[nH]cnc2ncc(-c3ccccc3)nc12", "EC50", "> 30 µM"),
    ("COc1ccc2nc(C(F)(F)F)c(C#N)c(N)c2c1", "EC50", "15 µM"),
    ("CC(C)NC1=NS(=O)(=O)c2cc(Cl)ccc2N1", "EC50", "0.25 µM"),
    ("NC(=O)c1ccccc1NS(=O)(=O)c1ccc(Cl)cc1", "EC50", "> 30 µM"),
]

Please report the measured EC50 for N#Cc1c(-c2ccccc2)c(-c2ccccc2)n[nH]c1=O
> 30 µM

Please report the measured EC50 for COc1ccc2[nH]c(N3CCCCC3)nc2c1
> 30 µM

Please report the measured EC50 for O=C(Nc1nccs1)c1c(O)c2cc(Cl)ccc2oc1=O
> 30 µM

Each recorded value in this set is attributed to ChEMBL document CHEMBL1147157.
